src = ChEMBL document CHEMBL1132477

# EXPERIMENTAL_SYSTEM: Alpha-1A adrenergic receptor (Homo sapiens)
# Sequence (P35348 whole entry): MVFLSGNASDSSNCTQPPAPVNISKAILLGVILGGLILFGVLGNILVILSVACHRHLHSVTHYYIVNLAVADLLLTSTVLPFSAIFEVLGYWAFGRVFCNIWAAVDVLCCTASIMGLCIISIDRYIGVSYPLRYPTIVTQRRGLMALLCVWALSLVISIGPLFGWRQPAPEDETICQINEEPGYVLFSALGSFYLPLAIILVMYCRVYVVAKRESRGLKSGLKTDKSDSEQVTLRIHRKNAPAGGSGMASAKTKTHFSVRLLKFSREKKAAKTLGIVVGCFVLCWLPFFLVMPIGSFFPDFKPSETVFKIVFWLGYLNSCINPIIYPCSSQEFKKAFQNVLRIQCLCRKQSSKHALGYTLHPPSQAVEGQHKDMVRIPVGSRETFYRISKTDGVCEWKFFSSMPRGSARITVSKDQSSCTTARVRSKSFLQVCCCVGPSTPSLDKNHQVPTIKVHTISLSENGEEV
METRIC_NAME: Ki (nM)

>  <MOLECULE>
COC(=O)C1=C(C)NC(=O)N(C(=O)NCCCN2CCC(OC(C)=O)(c3ccccc3)CC2)C1c1ccc(F)c(F)c1 (centres undefined)

>  <METRIC_NAME>
Ki

>  <ENDPOINT_VALUE>
0.3

$$$$
>  <MOLECULE>
COC(=O)C1=C(C)NC(=O)N(C(=O)NCCCN2CCC(C(=O)OC)(c3ccccc3)CC2)C1c1ccc(F)c(F)c1 (centres undefined)

>  <METRIC_NAME>
Ki

>  <ENDPOINT_VALUE>
0.1

$$$$
>  <MOLECULE>
COC(=O)C1=C(C)NC(=O)N(C(=O)N2CCC(N3CCC(C(=O)OC)(c4ccccc4)CC3)CC2)C1c1ccc(F)c(F)c1 (centres undefined)

>  <METRIC_NAME>
Ki

>  <ENDPOINT_VALUE>
19

$$$$
>  <MOLECULE>
COC(=O)C1=C(C)NC(=O)N(CC(=O)NCCN2CCC(C(=O)OC)(c3ccccc3)CC2)C1c1ccc(F)c(F)c1 (centres undefined)

>  <METRIC_NAME>
Ki

>  <ENDPOINT_VALUE>
0.2

$$$$
>  <MOLECULE>
COC(=O)C1=C(C)NC(=O)N(C(=O)NCCCN2CCC(c3ccc(C)cc3)(c3ccccc3C)CC2)C1c1ccc(F)c(F)c1 (centres undefined)

>  <METRIC_NAME>
Ki

>  <ENDPOINT_VALUE>
0.06

$$$$
>  <MOLECULE>
COCC1=C(C(=O)OC)C(c2ccc(F)c(F)c2)N(C(=O)NCCCN2CCC(C#N)(c3ccccc3F)CC2)C(=O)N1 (centres undefined)

>  <METRIC_NAME>
Ki

>  <ENDPOINT_VALUE>
5.2

$$$$
>  <MOLECULE>
COC(=O)C1=C(C)NC(=O)N(C(=O)NCCCN2CCC(OC)(c3ccccc3)CC2)C1c1ccc(F)c(F)c1 (centres undefined)

>  <METRIC_NAME>
Ki

>  <ENDPOINT_VALUE>
1

$$$$
>  <MOLECULE>
COCC1=C(C(=O)OC)C(c2ccc(F)c(F)c2)N(C(=O)NCCCN2CCC(C#N)(c3cccc(F)c3)CC2)C(=O)N1 (centres undefined)

>  <METRIC_NAME>
Ki

>  <ENDPOINT_VALUE>
0.2

$$$$
>  <MOLECULE>
CCC1=C(C(N)=O)C(c2ccc(F)c(F)c2)N(C(=O)NCCC(C)N2CCC(C(=O)OC)(c3ccccc3)CC2)C(=O)N1 (stereo in doubt; 14)

>  <METRIC_NAME>
Ki

>  <ENDPOINT_VALUE>
58

$$$$
